Entry source: patent US20240109930A1

# Experimental Target: human Gal-1 (hGal-1) (Homo sapiens, UniProt P09382, C131S/C17S/C43S/C61S/C89S)
# Protocol Notes: Competitive binding assay: biotinylated hGal-1 binding to microplate-adsorbed asialofetuin (ASF)
# Test Context: IC50 values from several measurements given as geomean
Catalogue of compounds with associated IC50
The answer is to be given in nM; state only the numeric part.

## Task Look up IC50: CO[C@@H]1[C@@H](n2cc(-c3ccc(C)c(F)c3F)nn2)[C@@H](O)[C@@H](CO)O[C@@H]1Cc1cn(C2(CO)CC2)nn1
## Result 2570

## Task Look up IC50: CO[C@@H]1[C@@H](n2cc(-c3ccc(Br)c(F)c3F)nn2)[C@@H](O)[C@@H](CO)O[C@@H]1Cn1cc(C2(O)CCCC2)nn1
## Result 4110
